Assign %Inh to each entry below.
# System: PRKX;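 also: KINOMEscan kinase panel screen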
# APPLIED CONDITIONS: concentration: 1 μM, replicates: in singlicate; n = 1
One number for each entry, in %.

Oc1ccc2ncnc(Nc3ccc(OCc4ccccc4)cc3)c2c1 [GI262866] :: 11
Cn1ccc2ncnc(Oc3ccc(NC(=O)Nc4cccnc4)c(Cl)c3)c21 :: 12
CCCc1ccc(S(=O)(=O)NC2CCN(c3ccnc(Nc4ccc(OC)cc4)n3)C2)cc1 (stereo not drawn) [GSK1379737] :: 0

Here are 6 molecules. What values of %Inh were reported for them?
1. CCn1c(-c2ccncc2)nc2cnccc21 [SB-735216]
2. Nc1nccc2scc(-c3ccc4c(c3)CCN4C(=O)Cc3cc(F)ccc3F)c12 [GSK2587663]
3. COc1ccc(NC(=O)c2ccc(-c3cc(-c4nnc(C)o4)ccc3C)cc2)cc1 [GW595885]
4. CC(C)(C)c1ccc(-n2cnc3c(N)ncnc32)cc1 [SKF-97263]
5. Fc1ccc(Nc2nccc(-c3c(-c4ccc(Cl)cc4)nn4ncccc34)n2)cc1F [GW829058]
6. O=C(Nc1ccccc1)Nc1ccc(Oc2ccc3nccn3n2)cc1

Reply text:
1. 0
2. 1
3. 5
4. 19
5. 0
6. 0
